Please respond with reported cytotoxicity at 70.5 h for every item in the list.
# method.summary: Human HepG2 cell viability assay in 384 well format
# Assay type: toxicity, cell-based
# Parameters: dose 125 nL, time 70.5 hour; concentration not given beside the values
# recorded.conditions: HepG2 cells, read-out: Inhibition

Example cases with answers are listed next.
compound=Cc1cc(CNc2cc(Cl)ccc2Cl)no1 value_kind="cytotoxicity at 70.5 h" readout_value=-14.1%
compound=Cc1csc(Nc2cc(C3CN(c4ccncn4)C3)nc(C)n2)n1 value_kind="cytotoxicity at 70.5 h" readout_value=-8.67%
compound="O=C(c1ccc(F)c(Br)c1)N1CCCN2CCCC2C1 (stereo not drawn)" value_kind="cytotoxicity at 70.5 h" readout_value=-8.34%
compound="c1ccc(-c2nc(CN3CCOC(Cn4cccn4)C3)no2)cc1 (stereo not drawn)" value_kind="cytotoxicity at 70.5 h" readout_value=2.47%
compound=CCOCCN1CCN(CCc2nc3ccccc3c(=O)[nH]2)CC1 value_kind="cytotoxicity at 70.5 h" readout_value=1.75%
compound="Nc1nc(CCCNC(=O)c2ccc(C3CCCNC3)cc2)cs1 (stereo not drawn)" value_kind="cytotoxicity at 70.5 h" readout_value=-7.45%
compound=CCN(Cc1cnn(C)c1)C[C@H]1CC[C@@H](Cc2ccc(C#N)cc2)O1 value_kind="cytotoxicity at 70.5 h" readout_value=-17.4%
compound="Cn1cnc2c1C(COCc1ccccc1)N(Cc1ccccn1)CC2 (stereo not drawn)" value_kind="cytotoxicity at 70.5 h" readout_value=-0.00457%
compound="Cc1cnn(C2CCCN(C(=O)Cc3n[nH]c4ccccc34)C2)c1 (stereo not drawn)" value_kind="cytotoxicity at 70.5 h" readout_value=0.337%
compound="Cc1ccc(NC2CCN(C(=O)C(C(C)C)n3cncn3)CC2)nn1 (stereo not drawn)" value_kind="cytotoxicity at 70.5 h" readout_value=-4.96%

Please look at the items below and tell me cytotoxicity at 70.5 h for each one, in order.
1. N#CCCN(Cc1ccco1)C(=O)Cc1ccc(-n2cnnn2)cc1
2. Cn1ccnc1CN1CCN(CC(=O)NCc2ccccc2F)CC1
3. CC1CN(C)c2ccccc2CN1C(=O)c1ccoc1 (stereo not drawn)
4. CN(C)Cc1cccc(-c2cccnc2C(=O)NCc2ccccn2)c1
5. Cc1n[nH]cc1CNC1(Cc2ccc(Br)cc2)CCCCC1
6. CN1C(=O)CC(N(C)Cc2nc3ccccc3c(=O)[nH]2)C1=O (stereo not drawn)
7. O=C(Cc1cccs1)N1CCCC(CNS(=O)(=O)Cc2ccccc2)C1 (stereo not drawn)
8. CCc1nc(N2CCCC(CCOC)(C(=O)O)C2)ncc1C (stereo not drawn)

["-6.73%", "1.39%", "10%", "-3.29%", "-1.97%", "23.4%", "-5.58%", "-4.01%"]

Please look at the items below and tell me cytotoxicity at 70.5 h for each one, in order.
1. CNc1cncc(C2CCCN2Cc2ccn(C)n2)n1 (stereo not drawn)
2. CNC(=O)[C@@H]1C[C@@H](N)CN1Cc1ccc2cccc(OC)c2n1

-1.7%
-2.31%

Please look at the items below and tell me cytotoxicity at 70.5 h for each one, in order.
1. CN1CCN(C(=O)[C@H]2C[C@@H]3CCN(c4ncc(F)cn4)C[C@@H]3O2)CC1
2. COCC(=O)N1C[C@@H](O)[C@H](N2CCN(c3ccccc3)CC2)C1
3. CN(Cc1ccccn1)C(=O)[C@H]1CO[C@H]2CCN(CC3CC3)C[C@H]2C1

["-13.1%", "-0.565%", "-5.92%"]

---

Please respond with reported cytotoxicity at 70.5 h for every item in the list.
# method.summary: Human HepG2 cell viability assay in 384 well format
# Type: toxicity, cell-based
# Set-up: dose 125 nL, time 70.5 hour; concentration not given beside the values
# recorded.conditions: HepG2 cells, read-out: Inhibition
One number for each entry, in %.

Example cases with answers are listed next.
compound=O=C([C@H]1CCCO1)N1CCC2(CC1)CNCc1ccccc12 value_kind="cytotoxicity at 70.5 h" readout_value=8.83
compound="CC(O)(CCc1ccccc1)CNC(=O)c1cccs1 (configuration not stated)" value_kind="cytotoxicity at 70.5 h" readout_value=-3.94
compound="CCc1nnc(CN2CCCC(c3cc(C(N)=O)[nH]n3)C2)o1 (configuration not stated)" value_kind="cytotoxicity at 70.5 h" readout_value=-6.39
compound="CN(Cc1ccco1)C(=O)NC(Cn1ccnc1)C(C)(C)C (configuration not stated)" value_kind="cytotoxicity at 70.5 h" readout_value=-5.15
compound="CCc1ccccc1N1CC(c2nnc(N)s2)CC1=O (configuration not stated)" value_kind="cytotoxicity at 70.5 h" readout_value=-13.1

Please look at the items below and tell me cytotoxicity at 70.5 h for each one, in order.
1. COc1ccc(C(=O)N(C)Cc2cc(C)on2)c(F)c1
2. O=C(NCc1ccccc1Cn1cncn1)C1CCC1
3. COCCN(C)C[C@@H]1CN(C(=O)c2ccc3c(c2)OCO3)C[C@@H]1CO
4. Cc1n[nH]c(SCC(=O)N2C[C@H]3CC[C@@H]2CN(c2ncccn2)C3)n1
5. O=C(c1ccsc1)N1CCc2onc(COc3ccccn3)c2C1
6. CCOC(C)c1noc(CN2CCNCC2)n1 (configuration not stated)

1: -10.6; 2: -4.18; 3: -12.8; 4: -4.86; 5: -1.49; 6: 13.6

Quick check: cytotoxicity at 70.5 h of CC(Cn1cccn1)NCCS(=O)(=O)c1ccc(Cl)cc1 (configuration not stated) ?
-9.68

---

# method.summary: Human HepG2 cell viability assay in 384 well format
# Type: toxicity, cell-based
# Set-up: dose 125 nL, time 70.5 hour; concentration not given beside the values
# recorded.conditions: HepG2 cells, read-out: Inhibition
Please respond with reported cytotoxicity at 70.5 h for every item in the list.
Numbers only, in %.

Example cases with answers are listed next.
compound="CCc1ncc(C(=O)N2CCCC(c3nccn3CCOC)C2)cn1 (stereo not drawn)" uom=% readout_value=-0.318
compound=CC(=O)N1CCC(NC(=O)c2ccc3c(c2O)OC(C)(C)C3)CC1 uom=% readout_value=-12.2
compound=Cc1ccnn1CCC(=O)N1C[C@@H](O)[C@H](Oc2cccc(F)c2)C1 uom=% readout_value=-2.79

Please look at the items below and tell me cytotoxicity at 70.5 h for each one, in order.
1. Cc1cccc(C)c1Nc1noc2c1CN(C(=O)c1c[nH]nc1C)CC2
2. CCOc1ncccc1CNC(=O)N1CCC(n2cncn2)CC1
3. Cc1noc(C)c1CC(=O)N1CCCN(C)c2ccc(Cl)cc21
4. O=C(Cc1ccc2c(c1)OCO2)N1CCN(c2ccccc2Cl)C(=O)C1
5. NC(=O)CC1CCCCN1C(=O)Cc1cccc(Br)c1 (stereo not drawn)
6. NC1(c2nc(-c3ccccc3)cc(=O)[nH]2)CCCCC1

1. 12.8
2. -0.329
3. -11.4
4. -4.7
5. -4.57
6. -10.8

Please look at the items below and tell me cytotoxicity at 70.5 h for each one, in order.
1. Cc1nc(C)n(CC2CCCN(CCC(=O)NC3CCCC3)C2)n1 (stereo not drawn)
2. Cn1cc(C2(C)CN(C(=O)COc3ccccc3F)CCO2)cn1 (stereo not drawn)
3. CC(=O)N1CCC(c2nc(Cc3ccccc3)no2)C1 (stereo not drawn)
4. CCn1nnc2c1CCN(C(=O)c1ccc3c(c1)OCO3)C2COC (stereo not drawn)
5. Cc1ccccc1-n1ncc2c(=O)n(CCN3CCCCC3)cnc21

[24.8, -4.09, -3.88, 10.7, 21]

Please look at the items below and tell me cytotoxicity at 70.5 h for each one, in order.
1. COc1nc2c(cc1C(=O)N1C[C@@H](N)C[C@H]1C(=O)NC(C)C)CCC2
2. CC(C)c1noc(CN(C)C(c2ccc(F)cc2)c2cccnc2)n1 (stereo not drawn)
3. O=C(c1ccno1)N1CCC2(CC(=O)N(c3ccc4c(c3)OCO4)C2)C1 (stereo not drawn)
4. O=C(NC[C@H]1OC[C@@H](NC2CCC(F)(F)CC2)[C@@H]1O)C1CCCC1
5. CC(C)N1CCC(c2cccc(C(=O)N(C)C)n2)CC1
6. CC[C@@H](CO)NC(=O)c1cccc(CCC(C)(C)O)c1
7. COc1ccc(S(=O)(=O)N2CCC[C@@H]3CN(C(=O)C4CC4)C[C@@H]32)cc1F
8. Cc1nc(C(=O)N(C)CC(=O)N(C)C)nn1-c1ccccc1C(C)C

[-2.39, 10.2, -0.613, -10.5, 24.4, -6.14, 21.2, 33.6]

Quick check: cytotoxicity at 70.5 h of "CC(=O)c1cccc(OCC(=O)NS(=O)(=O)c2cccs2)c1" ?
-6.58

---

# method.summary: Human HepG2 cell viability assay in 384 well format
# Type: toxicity, cell-based
# Design: dose 125 nL, time 70.5 hour; concentration not given beside the values
# recorded.conditions: HepG2 cells, read-out: Inhibition
value.kind: cytotoxicity at 70.5 h (%)
Numbers only, in %.

Example cases with answers are listed next.
molecule="COc1ccccc1CN(Cc1cccnc1)CC1CCCO1 (configuration not stated)" readout_value=-1.02
molecule=CC(C)CN1CCC(C(=O)Nc2cc(C(F)(F)F)c[nH]c2=O)CC1 readout_value=-6.4
molecule="CN(C)c1nccnc1C1CCN(C(=O)C2(C)CCCCN2C)CC1 (configuration not stated)" readout_value=-5.33
molecule=CCOc1ccc(Cl)c(C(=O)N(C)C)n1 readout_value=-2.99
molecule="CC(=O)N1CCCC2(C1)CN(C(=O)Cc1ccccc1)CCO2 (configuration not stated)" readout_value=-15.1

Please look at the items below and tell me cytotoxicity at 70.5 h for each one, in order.
1. C[C@H](NC(=O)c1cccc(CCC(C)(C)O)c1)C(N)=O
2. CN(C)CC1(O)CCN(C(=O)c2ccc(-n3cccn3)cc2Cl)C1 (configuration not stated)
3. Cc1cc(C2CCCN(C(=O)COc3ccc(F)cc3)C2)n[nH]1 (configuration not stated)
4. CCC(c1nc(CC(C)C)nn1-c1ccccn1)n1cccn1 (configuration not stated)
5. Cc1ccnc(NC(=O)c2cncc(C3CCNCC3)n2)c1
6. CC(C)(C)CC(=O)NCCCn1cncn1

[-0.496, 5.18, -8.58, -12.3, -10.4, -6.64]

Quick check: cytotoxicity at 70.5 h of "CCCc1n[nH]c(=O)n1Cc1ccc(OC)cc1" ?
12.2
